SYSTEM_NAME: PKA catalytic domain (Homo sapiens, UniProt P17612)
Recorded IC50, one value per entry.
METRIC: IC50

>  <COMPOUND>
NC1(c2ccc(Cl)cc2)CCN(c2ncnc3[nH]c(=O)[nH]c23)CC1 [Example 12]

>  <SYSTEM_NAME>
PKA catalytic domain (Homo sapiens, UniProt P17612)

>  <METRIC>
IC50

>  <MEASURED>
< 10 µM

$$$$
>  <COMPOUND>
NC1(C(=O)NCc2ccc(Cl)cc2)CCN(c2ncnc3[nH]c(=O)[nH]c23)CC1 [Example 6]

>  <SYSTEM_NAME>
PKA catalytic domain (Homo sapiens, UniProt P17612)

>  <METRIC>
IC50

>  <MEASURED>
< 10 µM

$$$$
>  <COMPOUND>
NC1(C(=O)NCc2ccc(Cl)cc2F)CCN(c2ncnc3[nH]c(=O)[nH]c23)CC1 [Example 7]

>  <SYSTEM_NAME>
PKA catalytic domain (Homo sapiens, UniProt P17612)

>  <METRIC>
IC50

>  <MEASURED>
< 10 µM

$$$$
